Biological target: Ephrin type-A receptor 2 (Homo sapiens, UniProt P29317)
Sequence (P29317 whole entry, the tested form may be a part): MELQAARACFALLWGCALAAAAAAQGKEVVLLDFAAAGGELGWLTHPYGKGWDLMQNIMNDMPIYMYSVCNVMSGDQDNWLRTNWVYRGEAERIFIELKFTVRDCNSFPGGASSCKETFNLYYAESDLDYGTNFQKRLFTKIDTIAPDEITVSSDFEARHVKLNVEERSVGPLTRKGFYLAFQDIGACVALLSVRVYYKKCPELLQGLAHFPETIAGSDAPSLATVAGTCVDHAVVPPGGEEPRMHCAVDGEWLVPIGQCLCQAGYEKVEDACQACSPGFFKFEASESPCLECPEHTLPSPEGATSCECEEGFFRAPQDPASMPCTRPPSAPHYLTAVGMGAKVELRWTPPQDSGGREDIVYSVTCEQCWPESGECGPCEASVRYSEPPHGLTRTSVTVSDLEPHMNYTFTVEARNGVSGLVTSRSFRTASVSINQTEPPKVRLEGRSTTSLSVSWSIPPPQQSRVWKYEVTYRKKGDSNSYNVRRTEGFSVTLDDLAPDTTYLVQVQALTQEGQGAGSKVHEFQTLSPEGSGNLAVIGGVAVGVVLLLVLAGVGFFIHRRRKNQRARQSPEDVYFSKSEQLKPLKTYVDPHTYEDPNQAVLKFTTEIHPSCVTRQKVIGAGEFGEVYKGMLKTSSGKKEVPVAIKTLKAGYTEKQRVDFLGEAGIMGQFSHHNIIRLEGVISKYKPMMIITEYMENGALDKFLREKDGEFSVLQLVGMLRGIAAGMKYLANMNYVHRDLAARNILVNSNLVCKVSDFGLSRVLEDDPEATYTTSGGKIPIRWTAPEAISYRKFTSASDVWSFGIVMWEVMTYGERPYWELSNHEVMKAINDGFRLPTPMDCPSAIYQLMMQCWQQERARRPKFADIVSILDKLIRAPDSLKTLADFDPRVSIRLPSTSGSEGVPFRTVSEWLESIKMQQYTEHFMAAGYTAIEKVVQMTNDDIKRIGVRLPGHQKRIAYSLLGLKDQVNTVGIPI
Experiment: Inhibition of recombinant human N-terminal His6-tagged EphA2 (N598 to R890 residues) expressed in baculovirus using poly-EY as substrate after 180 mins by luciferase coupled chemiluminescence assay
Hi there, I'd appreciate the recorded IC50 for every entry that follows.

*Q* Tell me the measured IC50 of COc1cc2c(Nc3ccc(Cl)c(Cl)c3)ncnc2cc1OCc1cc(F)cc2c1OCOC2 , please.
*A* 1000 to 20000 nM

*Q* Query: IC50; subject: COc1cc2c(Nc3ccc(Cl)c(Cl)c3)ncnc2cc1OCCC1CNC(C)(C)CO1 (stereo not drawn)
*A* 50 to 1000 nM

*Q* Quick one: IC50 for CCN1CCN(C(C)=O)CC1COc1cc2ncnc(Nc3ccc(Cl)c(Cl)c3)c2cc1OC (stereo not drawn) ?
*A* 50 to 1000 nM

*Q* Can you look up the measured IC50 of COc1cc2c(Nc3ccc(Cl)c(Cl)c3)ncnc2cc1OC[C@H]1CN2CCC[C@@H]2CO1 for me?
*A* 50 to 1000 nM

*Q* # lookup: IC50 of COc1cc2c(Nc3ccc(Br)c(Cl)c3)ncnc2cc1O[C@H]1CO[C@H]2[C@@H]1OC[C@@H]2N1CCN(C)CC1
*A* 1000 to 20000 nM

*Q* Look up IC50: COc1cc2c(Nc3ccc(Cl)c(Cl)c3)ncnc2cc1OCC1CN(C(=O)c2cccnc2Cl)CCO1 (stereo not drawn)
*A* 50 to 1000 nM

*Q* Which IC50 reading was recorded for the molecule COc1cc2c(Nc3ccc(Cl)c(Br)c3)ncnc2cc1OCC1CN(C)CCO1 (stereo not drawn) ?
*A* 50 to 1000 nM

*Q* Form field: reported IC50 of CC(C)Oc1cc2c(Nc3ccc(Cl)c(Cl)c3)ncnc2cc1OCC1CNCCO1 (stereo not drawn)
*A* < 50 nM

###

Hi there, I'd appreciate the recorded pIC50 for every entry that follows.
Target: Ephrin type-B receptor 4 (Homo sapiens, UniProt P54760)
Sequence (P54760 whole entry): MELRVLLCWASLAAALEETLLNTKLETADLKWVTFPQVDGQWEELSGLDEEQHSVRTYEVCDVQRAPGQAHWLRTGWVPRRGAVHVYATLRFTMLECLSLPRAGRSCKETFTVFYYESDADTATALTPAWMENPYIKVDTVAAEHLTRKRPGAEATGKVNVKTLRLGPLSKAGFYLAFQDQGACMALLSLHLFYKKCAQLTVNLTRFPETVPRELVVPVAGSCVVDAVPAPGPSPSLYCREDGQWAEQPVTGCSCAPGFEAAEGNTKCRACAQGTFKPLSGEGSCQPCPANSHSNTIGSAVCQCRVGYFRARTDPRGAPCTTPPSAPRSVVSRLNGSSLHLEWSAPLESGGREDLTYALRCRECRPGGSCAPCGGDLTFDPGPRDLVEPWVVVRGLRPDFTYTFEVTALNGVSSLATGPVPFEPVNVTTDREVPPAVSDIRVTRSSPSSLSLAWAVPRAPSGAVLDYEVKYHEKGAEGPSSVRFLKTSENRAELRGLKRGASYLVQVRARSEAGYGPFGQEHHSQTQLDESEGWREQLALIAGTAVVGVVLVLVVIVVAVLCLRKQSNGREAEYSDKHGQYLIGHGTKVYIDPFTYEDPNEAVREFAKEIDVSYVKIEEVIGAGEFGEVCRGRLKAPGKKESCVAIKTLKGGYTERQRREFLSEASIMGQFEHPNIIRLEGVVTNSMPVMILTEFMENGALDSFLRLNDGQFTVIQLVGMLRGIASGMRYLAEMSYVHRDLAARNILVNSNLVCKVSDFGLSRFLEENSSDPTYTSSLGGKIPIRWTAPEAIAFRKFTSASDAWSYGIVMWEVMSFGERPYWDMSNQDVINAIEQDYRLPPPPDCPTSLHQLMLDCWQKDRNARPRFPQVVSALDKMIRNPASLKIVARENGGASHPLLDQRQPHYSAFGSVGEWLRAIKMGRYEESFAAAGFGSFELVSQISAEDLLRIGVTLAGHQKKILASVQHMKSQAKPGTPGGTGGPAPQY
Test: Inhibition of recombinant human N-terminal His6-tagged EphB4 kinase domain (E605 to E890 residues) expressed in baculovirus using poly-AEKY as substrate after 150 mins in presence of gamma33P-ATP by liquid scintillation spectrometry
pIC50: −log10 of the molar value.

*Q* Using the record for COc1cc2c(Nc3ccc(Cl)c(Cl)c3)ncnc2cc1OCc1csc(CN2CCCC2)n1 , report its pIC50.
*A* 6.00 to 7.30

*Q* Look up pIC50: COc1cc2c(Nc3ccc(C)c(Br)c3)ncnc2cc1OCC1CN(C)CCO1 (stereo not drawn)
*A* > 7.30

*Q* // lookup pIC50 for COc1cc2c(Nc3ccc(Cl)c(Cl)c3)ncnc2cc1OCCC1CN(C)CC(C)(C)O1 (stereo not drawn)
*A* 6.00 to 7.30

###

Molecular target: Ephrin type-B receptor 4 (Homo sapiens)
Experiment: Inhibition of recombinant human N-terminal His6-tagged EphB4 kinase domain (E605 to E890 residues) expressed in baculovirus using poly-AEKY as substrate after 150 mins in presence of gamma33P-ATP by liquid scintillation spectrometry
Can you tell me IC50 for the items I'm about to list?

*Q* Bench note: what IC50 did COc1cc2c(Nc3cc(Cl)c(Cl)cc3F)ncnc2cc1OC[C@@H]1CN2CCC[C@H]2CO1 show?
*A* < 50 nM

*Q* // lookup IC50 for COc1cc2c(Nc3ccc(Br)c(Cl)c3)ncnc2cc1O[C@H]1CO[C@H]2[C@@H]1OC[C@@H]2N1CCN(C)CC1
*A* 50 to 1000 nM

*Q* # input compound: COc1cc2c(Nc3ccc(Cl)c(Cl)c3)ncnc2cc1OCC1CN(CCC2CCCCC2)CCCO1 (stereo not drawn) ; wanted: its IC50
*A* 50 to 1000 nM

*Q* IC50 for CCC(CC)CN1CCOC(COc2cc3ncnc(Nc4ccc(Cl)c(Cl)c4)c3cc2OC)C1 (stereo not drawn) ?
*A* 50 to 1000 nM

*Q* Bench note: what IC50 did COc1cc2c(Nc3ccc(Br)c(Cl)c3)ncnc2cc1O[C@H]1CO[C@H]2[C@@H]1OC[C@@H]2NC(C)=O show?
*A* 50 to 1000 nM

*Q* // IC50 lookup, key: COc1cc2c(Nc3cccc(Cl)c3C)ncnc2cc1OCC1CN(C)CCO1 (stereo not drawn)
*A* < 50 nM

*Q* Please give the measured IC50 for this compound: COc1cc2c(Nc3ccc(Cl)c(Cl)c3)ncnc2cc1OC[C@@H]1CN2CCC[C@H]2CO1
*A* < 50 nM

*Q* GET /values?readout=IC50&item= COc1cc2c(Nc3ccc(Cl)c(Cl)c3)ncnc2cc1OCC1CN(CC2CCCCC2)CCCO1 (stereo not drawn)
*A* 50 to 1000 nM

*Q* # query: IC50 of entry COc1cc2c(Nc3ccc(Br)c(Cl)c3)ncnc2cc1O[C@H]1CO[C@H]2[C@@H]1OC[C@@H]2S(C)(=O)=O
*A* 50 to 1000 nM

*Q* Name the recorded IC50 for CCC(CC)CN1CCCOC(COc2cc3ncnc(Nc4ccc(Cl)c(Cl)c4)c3cc2OC)C1 (stereo not drawn) .
*A* 50 to 1000 nM

*Q* Give its IC50 value. Item: COc1cc2c(Nc3ccc(Cl)c(Cl)c3)ncnc2cc1OCC1CN(/C(=N/C#N)N2CCN(C)CC2)CCO1 (stereo not drawn)
*A* < 50 nM

*Q* Fill blank: measured IC50 of the compound COc1cc2c(Nc3ccc(Cl)c(Cl)c3)ncnc2cc1OCC1CN(C(=O)c2ccc3c(c2)OCO3)CCO1 (stereo not drawn) is ____.
*A* 50 to 1000 nM

*Q* Given CCN1CCN(C)CC1COc1cc2ncnc(Nc3ccc(Cl)c(Cl)c3)c2cc1OC (stereo not drawn) , state its recorded IC50.
*A* 50 to 1000 nM

###

Kindly state pIC50 for each of the entries shown.
Biological target: Vascular endothelial growth factor receptor 2 (Homo sapiens, UniProt P35968)
Sequence (P35968 whole entry, the tested form may be a part): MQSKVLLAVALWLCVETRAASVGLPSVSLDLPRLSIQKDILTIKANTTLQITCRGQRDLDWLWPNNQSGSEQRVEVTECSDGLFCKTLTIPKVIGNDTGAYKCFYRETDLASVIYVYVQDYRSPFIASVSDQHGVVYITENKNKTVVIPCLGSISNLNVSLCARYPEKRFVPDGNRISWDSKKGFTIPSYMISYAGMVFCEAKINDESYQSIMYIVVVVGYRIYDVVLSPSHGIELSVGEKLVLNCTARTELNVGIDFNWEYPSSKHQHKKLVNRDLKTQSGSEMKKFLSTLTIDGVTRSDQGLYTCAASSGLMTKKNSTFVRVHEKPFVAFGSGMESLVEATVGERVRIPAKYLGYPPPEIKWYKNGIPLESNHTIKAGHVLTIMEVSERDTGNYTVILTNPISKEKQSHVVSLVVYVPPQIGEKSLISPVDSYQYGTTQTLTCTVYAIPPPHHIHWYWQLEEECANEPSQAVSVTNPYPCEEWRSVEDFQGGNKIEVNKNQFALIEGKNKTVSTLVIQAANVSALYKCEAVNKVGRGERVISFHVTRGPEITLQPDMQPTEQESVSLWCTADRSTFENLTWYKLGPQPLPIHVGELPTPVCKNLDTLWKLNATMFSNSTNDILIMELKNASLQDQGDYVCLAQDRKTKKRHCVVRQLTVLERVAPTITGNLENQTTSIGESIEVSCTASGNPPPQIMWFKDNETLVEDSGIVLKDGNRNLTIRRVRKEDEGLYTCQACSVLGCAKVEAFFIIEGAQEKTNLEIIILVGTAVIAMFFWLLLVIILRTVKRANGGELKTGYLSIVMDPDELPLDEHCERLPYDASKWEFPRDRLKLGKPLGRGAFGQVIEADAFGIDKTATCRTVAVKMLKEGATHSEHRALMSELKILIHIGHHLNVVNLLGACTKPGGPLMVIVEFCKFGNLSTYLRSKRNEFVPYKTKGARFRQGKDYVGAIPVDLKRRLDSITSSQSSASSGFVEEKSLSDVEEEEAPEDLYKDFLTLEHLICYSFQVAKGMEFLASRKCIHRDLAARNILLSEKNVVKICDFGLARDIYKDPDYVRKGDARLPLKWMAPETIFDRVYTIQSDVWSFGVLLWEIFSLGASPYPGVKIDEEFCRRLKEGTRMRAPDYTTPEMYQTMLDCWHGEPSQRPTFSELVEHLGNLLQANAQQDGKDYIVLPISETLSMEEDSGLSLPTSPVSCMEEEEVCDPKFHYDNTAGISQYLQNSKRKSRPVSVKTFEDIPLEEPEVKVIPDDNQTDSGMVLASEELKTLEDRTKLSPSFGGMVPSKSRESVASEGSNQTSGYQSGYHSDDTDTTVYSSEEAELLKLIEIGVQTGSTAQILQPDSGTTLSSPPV
Experiment: Inhibition of recombinant human N-terminal GST-fused KDR (D807 to V1356 residues) expressed in baculovirus infected […] insect Sf9 cells using poly-EY as substrate after 240 mins by luciferase coupled chemiluminescence assay
pIC50: −log10 of the molar value.

*Q* Fill in the recorded pIC50 for this compound, with Vascular endothelial growth factor receptor 2 (Homo sapiens, UniProt P35968) as test system: COc1cc2c(Nc3ccc(Cl)c(Cl)c3)ncnc2cc1OC1C[C@@H]2CN(C)C[C@@H]2C1 (stereo not given in full)
*A* 6.00 to 7.30

*Q* Provide value of pIC50 for this record tested with Vascular endothelial growth factor receptor 2 (Homo sapiens, UniProt P35968): COc1cc2c(Nc3ccc(F)c(Cl)c3F)ncnc2cc1OCC1CN(C)CCO1 (stereo not given)
*A* > 7.30

*Q* State its pIC50 on Vascular endothelial growth factor receptor 2 (Homo sapiens, UniProt P35968): C=CCCCCCCN1CCOC(COc2cc3ncnc(Nc4ccc(Cl)c(Cl)c4)c3cc2OC)C1 (stereo not given)
*A* 6.00 to 7.30

*Q* Reported pIC50 for Vascular endothelial growth factor receptor 2 (Homo sapiens, UniProt P35968), given COc1cc2c(Nc3ccc(Cl)c(Cl)c3)ncnc2cc1OCC1CN(C(=O)c2c(C)noc2C)CCO1 (stereo not given) ?
*A* 6.00 to 7.30

*Q* // fetch Vascular endothelial growth factor receptor 2 (Homo sapiens, UniProt P35968) pIC50 for CCC(CC)CN1CCOC(COc2cc3ncnc(Nc4ccc(Cl)c(Cl)c4)c3cc2OC)C1 (stereo not given)
*A* 6.00 to 7.30

*Q* Requested read-out pIC50, target or system Vascular endothelial growth factor receptor 2 (Homo sapiens, UniProt P35968), entry COc1cc2c(Nc3cccc(Cl)c3C)ncnc2cc1OCC1CN(C)CCO1 (stereo not given)
*A* 6.00 to 7.30

*Q* Quick check: pIC50 on Vascular endothelial growth factor receptor 2 (Homo sapiens, UniProt P35968), item COc1cc2c(Nc3ccc(C)c(Cl)c3Cl)ncnc2cc1OCC1CN(C)CCO1 (stereo not given) ?
*A* > 7.30

*Q* Form entry - test system: Vascular endothelial growth factor receptor 2 (Homo sapiens, UniProt P35968); read-out: pIC50; compound: COc1cc2c(Nc3ccc(Cl)c(Cl)c3Cl)ncnc2cc1OCC1CN(C)CCO1 (stereo not given)
*A* > 7.30

*Q* Identify the measured pIC50 of COc1cc2c(Nc3ccc(Cl)c(Cl)c3)ncnc2cc1OCC1CN(S(=O)(=O)Cc2ccccc2)CCO1 (stereo not given) for Vascular endothelial growth factor receptor 2 (Homo sapiens, UniProt P35968).
*A* 6.00 to 7.30

*Q* Reported pIC50 for Vascular endothelial growth factor receptor 2 (Homo sapiens, UniProt P35968), given COc1cc2c(Nc3ccc(Cl)c(Cl)c3)ncnc2cc1OCC1CN(C(=O)c2ccoc2)CCO1 (stereo not given) ?
*A* 6.00 to 7.30
